tested on: MILI (PIWIL2) piRISC loaded with L1MC piRNA (26 nt); experiment: pre-steady-state target cleavage rate (min^-1); guide: L1MC piRNA 5'p-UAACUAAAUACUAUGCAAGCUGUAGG; MIWI and MILI are mouse PIWI proteins and EfPiwi is from a freshwater sponge; tags in brackets are library labels; higher = faster piRNA-guided slicing of the target; conditions: auxiliary factor: none (no GTSF1);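 further: 1 nM active piRISC with 0.1 nM target library at 33 °C single turnover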
quantity measured: pre-steady-state target cleavage rate

sequence_content=UCCUGCUACAGCUUGCAUAGUUAUUAGUUA measured_on="MILI (PIWIL2) piRISC loaded with L1MC piRNA (26 nt)" comparison_operator== result=0.00337
sequence_content=UCCUGGUACAGCUUGCAUAGUUAAUAGUUA measured_on="MILI (PIWIL2) piRISC loaded with L1MC piRNA (26 nt)" comparison_operator== result=0.00424
sequence_content=UCCUGGAACAGCUUGCAUAGUAUUAAGUUA measured_on="MILI (PIWIL2) piRISC loaded with L1MC piRNA (26 nt)" comparison_operator== result=0.00457
sequence_content=UCCUGGUACAGCAUGCAUAGUAUAUAGUUA measured_on="MILI (PIWIL2) piRISC loaded with L1MC piRNA (26 nt)" comparison_operator== result=0.00583
sequence_content=UCCUGGAUGAGCUUGCAUAGGUAUUUAGUUA measured_on="MILI (PIWIL2) piRISC loaded with L1MC piRNA (26 nt)" comparison_operator== result=0.00493
sequence_content="UCCUGGAUGUCCUUGCAUAGUAUUUAGUUC [g2:g19:cont:t1C]" measured_on="MILI (PIWIL2) piRISC loaded with L1MC piRNA (26 nt)" comparison_operator== result=0.00931
sequence_content=UCCUGGAUGUCGAACGUAAGUAUUUUGUUA measured_on="MILI (PIWIL2) piRISC loaded with L1MC piRNA (26 nt)" comparison_operator=< result=0.0001
sequence_content=UCCUGGAUGUCGAACGAUAGUGUUUAGUUA measured_on="MILI (PIWIL2) piRISC loaded with L1MC piRNA (26 nt)" comparison_operator=< result=0.0001
sequence_content=UCCUGCUACUCGUUGCAUAGUAUUUAGUUA measured_on="MILI (PIWIL2) piRISC loaded with L1MC piRNA (26 nt)" comparison_operator== result=0.0082
sequence_content=UCCUGGAUGAGCUUGCCUAGUAUUUAGUUA measured_on="MILI (PIWIL2) piRISC loaded with L1MC piRNA (26 nt)" comparison_operator== result=0.00475
sequence_content=UCCUGGAUGUCCUUCGCAUAGUAUUUAGUUA measured_on="MILI (PIWIL2) piRISC loaded with L1MC piRNA (26 nt)" comparison_operator== result=0.00538
sequence_content=UCCUCCAACAGCUUGCAUACUAUUUAGUUA measured_on="MILI (PIWIL2) piRISC loaded with L1MC piRNA (26 nt)" comparison_operator== result=0.00321
sequence_content=UCCUGCUACAGCUUGCAUAGUACUUUAGUUA measured_on="MILI (PIWIL2) piRISC loaded with L1MC piRNA (26 nt)" comparison_operator== result=0.00825
sequence_content=UCCUGGAAGAGCUUGCAUUGUAUUUAGUUA measured_on="MILI (PIWIL2) piRISC loaded with L1MC piRNA (26 nt)" comparison_operator== result=0.00838
sequence_content=UCCUGGAACAGCUAGCAUAGUAUUUAGUUA measured_on="MILI (PIWIL2) piRISC loaded with L1MC piRNA (26 nt)" comparison_operator== result=0.00629
sequence_content=UCCUGGAUGUGCUUGCAUCGUAUUUAGUUA measured_on="MILI (PIWIL2) piRISC loaded with L1MC piRNA (26 nt)" comparison_operator== result=0.0103
sequence_content=UCCUGGAUGUGGUUGCAUAGUAUUUUGUUA measured_on="MILI (PIWIL2) piRISC loaded with L1MC piRNA (26 nt)" comparison_operator== result=0.0039
sequence_content=UCCUGGAUCAGCUUGCAAAGUUUUUAGUUA measured_on="MILI (PIWIL2) piRISC loaded with L1MC piRNA (26 nt)" comparison_operator== result=0.0042
sequence_content=UCCUGGAUGAGCUAGCAUAGUAUUAAGUUA measured_on="MILI (PIWIL2) piRISC loaded with L1MC piRNA (26 nt)" comparison_operator== result=0.00417
sequence_content=UCCUGCUUCAGGUUGCAUAGUAUUUAGUUA measured_on="MILI (PIWIL2) piRISC loaded with L1MC piRNA (26 nt)" comparison_operator== result=0.0111
sequence_content=UCCUGGAUGUGCUUGCUUAGUAAUUAGUUA measured_on="MILI (PIWIL2) piRISC loaded with L1MC piRNA (26 nt)" comparison_operator== result=0.00576
sequence_content=UCCUGGAUGUCGAAGGAAAGUAUUUAGUUA measured_on="MILI (PIWIL2) piRISC loaded with L1MC piRNA (26 nt)" comparison_operator=< result=0.0001
sequence_content=UCCUGGAUGAGCUAUGCAUAGUAUUUAGUUA measured_on="MILI (PIWIL2) piRISC loaded with L1MC piRNA (26 nt)" comparison_operator== result=0.0126
sequence_content=UCCUGGAUGUCCUUGCAUAGUAUUUAGUA measured_on="MILI (PIWIL2) piRISC loaded with L1MC piRNA (26 nt)" comparison_operator== result=0.00356
sequence_content=UCCUGGAUGUCGAACCAUAGUAUUUUGUAA measured_on="MILI (PIWIL2) piRISC loaded with L1MC piRNA (26 nt)" comparison_operator=< result=0.0001
sequence_content=UCCUGCUACAGGUUGGAUAGUAUUUAGUUA measured_on="MILI (PIWIL2) piRISC loaded with L1MC piRNA (26 nt)" comparison_operator== result=0.00926
sequence_content=UCCUGCUUCAGCUAGCAUAGUAUUUAGUUA measured_on="MILI (PIWIL2) piRISC loaded with L1MC piRNA (26 nt)" comparison_operator== result=0.00715
sequence_content=UCCUGGAACAGCUUGCAAAGUUUUUAGUUA measured_on="MILI (PIWIL2) piRISC loaded with L1MC piRNA (26 nt)" comparison_operator== result=0.0029
sequence_content=UCCUGCUACAGCUUGCAAGUAUUUAGUUA measured_on="MILI (PIWIL2) piRISC loaded with L1MC piRNA (26 nt)" comparison_operator== result=0.00374
sequence_content=UCCUGGUACAGCAUGCAUUGUAUUUAGUUA measured_on="MILI (PIWIL2) piRISC loaded with L1MC piRNA (26 nt)" comparison_operator== result=0.0119
sequence_content=UCCUGCUACAGCAUGCAUAGUAUUUAGUAA measured_on="MILI (PIWIL2) piRISC loaded with L1MC piRNA (26 nt)" comparison_operator== result=0.00478
sequence_content=UCCUGGUACAGCUUGCAUAGUAUUUAGUAUA measured_on="MILI (PIWIL2) piRISC loaded with L1MC piRNA (26 nt)" comparison_operator== result=0.00565
sequence_content=UCCUGGAUCAGCUUGCAUUGUAUAUAGUUA measured_on="MILI (PIWIL2) piRISC loaded with L1MC piRNA (26 nt)" comparison_operator== result=0.00663
sequence_content=UCCUGCUACAGCUUGAAUAGUAUUUAGUUA measured_on="MILI (PIWIL2) piRISC loaded with L1MC piRNA (26 nt)" comparison_operator== result=0.00812
sequence_content=UCCUGGUACACCUAGCAUAGUAUUUAGUUA measured_on="MILI (PIWIL2) piRISC loaded with L1MC piRNA (26 nt)" comparison_operator== result=0.00696
sequence_content=UCCUGGAUGUGCUUGCAUAGUAUCUUAGUUA measured_on="MILI (PIWIL2) piRISC loaded with L1MC piRNA (26 nt)" comparison_operator== result=0.0069
sequence_content="UCCUGGAUGUCCUUGCAUAGUAUUUAGUUU [g2:g19:cont:t1U]" measured_on="MILI (PIWIL2) piRISC loaded with L1MC piRNA (26 nt)" comparison_operator== result=0.0113
sequence_content=UCCUGGAUGUGCUUGCUAGUAUUUAGUUA measured_on="MILI (PIWIL2) piRISC loaded with L1MC piRNA (26 nt)" comparison_operator== result=0.00432
sequence_content=UCCUGGAUCAGCUAGCAUAGAAUUUAGUUA measured_on="MILI (PIWIL2) piRISC loaded with L1MC piRNA (26 nt)" comparison_operator== result=0.00247
sequence_content="UCCUGGAUGUCCUUGCAUAGUAUUUAGUUG [g2:g19:cont:t1G]" measured_on="MILI (PIWIL2) piRISC loaded with L1MC piRNA (26 nt)" comparison_operator== result=0.00821
sequence_content=UCCUGGAUCAGCUUGCAUAGUAUUUAGUAUA measured_on="MILI (PIWIL2) piRISC loaded with L1MC piRNA (26 nt)" comparison_operator== result=0.00809
sequence_content=UCCUCCUAGAGCUUGCAUAGUAUUUAGUAA measured_on="MILI (PIWIL2) piRISC loaded with L1MC piRNA (26 nt)" comparison_operator== result=0.00313
sequence_content=UCCUGGAUCAGCUUGCAUAGUAUUUAGUUUA measured_on="MILI (PIWIL2) piRISC loaded with L1MC piRNA (26 nt)" comparison_operator== result=0.00718
sequence_content=UCCUCGUACAGGUUGCAUAGUAUUUAGUUA measured_on="MILI (PIWIL2) piRISC loaded with L1MC piRNA (26 nt)" comparison_operator== result=0.00988
sequence_content=UCCUGGAUCAGACUUGCAUAGUAUUUAGUUA measured_on="MILI (PIWIL2) piRISC loaded with L1MC piRNA (26 nt)" comparison_operator== result=0.00843
sequence_content=UCCUGGUAGAGCUUGCAUAGUAUUUUGUUA measured_on="MILI (PIWIL2) piRISC loaded with L1MC piRNA (26 nt)" comparison_operator== result=0.00365
sequence_content=UCCUGGAUGUCCUUGCAUAGUAUUCAGUUA measured_on="MILI (PIWIL2) piRISC loaded with L1MC piRNA (26 nt)" comparison_operator== result=0.00338
sequence_content=UCCUGGAUGAGCUUGCUUAGUUUUUAGUUA measured_on="MILI (PIWIL2) piRISC loaded with L1MC piRNA (26 nt)" comparison_operator== result=0.00418
sequence_content=UCCUGGAACAGCUUGCAUAGUAGUUAGUUA measured_on="MILI (PIWIL2) piRISC loaded with L1MC piRNA (26 nt)" comparison_operator== result=0.00378
sequence_content="UCCUGGAUGUCGAUGCAUAGUAUUUAGUUU [g2:g17:cont:t1U]" measured_on="MILI (PIWIL2) piRISC loaded with L1MC piRNA (26 nt)" comparison_operator== result=0.00618
sequence_content=UCCUGGAUGUGCUUCAUAGUAUUUAGUUA measured_on="MILI (PIWIL2) piRISC loaded with L1MC piRNA (26 nt)" comparison_operator== result=0.00455
sequence_content=UCCUGGAUGUGGUUGCAUAGUAUUUAGUUA measured_on="MILI (PIWIL2) piRISC loaded with L1MC piRNA (26 nt)" comparison_operator== result=0.0112
sequence_content="UCCUGGAACAGCUUGCAAUCAUAAAUCAAA [g14:g23:cont:t1A]" measured_on="MILI (PIWIL2) piRISC loaded with L1MC piRNA (26 nt)" comparison_operator=< result=0.0001
